Target Under Test: T1, human LAG3 (human, UniProt P18627 29-450, limits assumed)
T1 construct: also called hLAG3
T1 sequence: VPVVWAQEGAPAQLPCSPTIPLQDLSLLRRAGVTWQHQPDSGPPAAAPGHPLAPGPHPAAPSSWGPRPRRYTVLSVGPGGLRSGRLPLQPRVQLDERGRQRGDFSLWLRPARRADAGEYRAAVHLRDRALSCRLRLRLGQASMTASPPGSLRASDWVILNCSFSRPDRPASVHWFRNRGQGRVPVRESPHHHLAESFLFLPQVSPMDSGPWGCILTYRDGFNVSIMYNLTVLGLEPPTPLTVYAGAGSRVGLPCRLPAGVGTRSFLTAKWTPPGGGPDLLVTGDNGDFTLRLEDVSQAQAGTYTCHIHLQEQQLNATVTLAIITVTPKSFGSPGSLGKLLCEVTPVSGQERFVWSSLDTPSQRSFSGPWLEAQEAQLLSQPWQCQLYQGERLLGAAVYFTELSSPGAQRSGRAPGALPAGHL
Procedure Summary: BLI (Octet) as in Examples 1-4, His-tagged VHH, human LAG3
Reported Endpoint: kon (M⁻¹ s⁻¹)

>>> test_value("LG2 (VHH, not shown: C-terminal His-tag) VHH: QVQLVESGGGLVQPGGSLRLSCAASGTIFSINAMGWYRQAPGKQRELVAIVTFGGSTNYADSVKGRFTISRDNAKNTVYLQMNSLKPEDTAVYYCSARNVQSPVQYHLAVWGQGTLVTVSS")
33300
>>> test_value("LG22 (VHH, not shown: C-terminal His-tag) VHH: EVQLVESGGGLVQPGGSLRLSCAASGFTLDYYAIGWFRQAPGKEREGVSCIINSDGSTYYADSVKGRFTISRDNAKNTVYLQMNSLKPEDTAVYYCATDRYSDCRGPYDYWGQGTQVTVSS")
42700
